Test system: KM-20L2
Test description: NCI tumour cell line growth inhibition, 48 h
Calls of active or inactive are those of the source. Rule as the data show it: active = GI50 up to about 1.1 µM and inactive = higher.
Outcomes: active, inactive

Molecule	Assigned class
CCCCCCCCCCCCCC(=O)OC1CC(=O)OC1CO (stereo unspecified)	inactive
Cc1ccc(NC(=O)CC(=O)N2N=C(N(CCC#N)c3cccc(C)c3)CC2c2ccccc2)cc1 (stereo unspecified)	inactive
CCC1NC(/N=N/c2ccc([N+](=O)[O-])cc2)(P(=O)(OC(C)C)OC(C)C)OC1=O (stereo unspecified)	inactive
CCOC(=O)C(=O)Nc1cc(Cl)c(Cl)cc1Cl	inactive
COc1cc(C2c3cc4c(cc3[C@@H](OCCN(C)C)C3COC(=O)[C@H]23)OCO4)cc(OC)c1O (stereo partly specified)	active
Nc1nc(Cl)cc(NCCCCO)n1	inactive

----------
Tested on: UO-31
Test description: NCI tumour cell line growth inhibition, 48 h
The source made the active and inactive calls. Rule as the data show it: active = GI50 up to about 1.1 µM and inactive = higher.
Outcomes: active, inactive

Compound	Assigned class
COc1ccc(N/N=C(\CCN(C)C)c2ccccc2)cc1	inactive
CC(=O)c1c(C)cn(S(=O)(=O)NC(=O)Nc2nncs2)c1C	inactive
COc1cc(/C=C2\CCc3cc(OC)c(OC)cc3C2=O)cc(OC)c1	inactive
Cc1cc(C)c(C(=O)O)c(N)c1O	inactive
CN(C)C(=S)/N=c1\ssc(=S)n1Cc1cccs1	inactive
C1CSCC2(COC2)CSCCSCC2(COC2)CS1	inactive
COc1cc2c(cc1OCCCC(=O)Nc1cc(C(=O)Nc3cc(C(=O)Nc4cc(C(=O)NCCCN(C)C)n(C)n4)n(C)n3)n(C)n1)N=CC1CCCN1C2=O (configuration not stated)	inactive
CC(C)C1=Cc2ccc3c(c2C(=O)C1=O)CCCC3	inactive
Cc1ccc2c(c1C)CC1(Cc3ccc(C)c(C)c3C1=O)C2=O (configuration not stated)	inactive
C=C1C2CC3CCC2C(OC(=O)c2ccccc2C(=O)O)C13 (configuration not stated)	inactive
CCC[C@H](C)[C@H]1NC(=O)[C@@H](NC(=O)[C@@H](CC(C)C)N(C)C(=O)C2CCCN2C(=O)[C@H](C)O)[C@@H](C)OC(=O)[C@H](CC(C)C)N(C)C(=O)[C@@H]2CCCN2C(=O)[C@H](CC(C)C)NC(=O)[C@@H](C)C(=O)[C@H](C(C)C)OC(=O)C[C@@H]1O (some centres not stated)	active
COc1cc(C(c2ccc3c(c2)OCO3)C2SCCCS2)cc(OC)c1OC (configuration not stated)	inactive
N/N=C(\N)Nc1cccc2ccccc12	inactive
C[C@@H](O)C(=O)N1[C@@H]2CC3CC[C@]2(CS1(=O)=O)C3(C)C	inactive
CCOC(=O)C1(Br)C(c2ccccc2)NC(=O)N(C2OC(COC(=O)c3ccccc3)C(OC(=O)c3ccccc3)C2OC(=O)c2ccccc2)C1(C)Br (configuration not stated)	inactive
Nc1ccc2c(c1)C(=O)c1c(F)cccc1-2	inactive
COc1ccc2nc(NC(=O)C(=O)NNC(=O)c3ccncc3)sc2c1	inactive
O=P(Nc1ccc(Cl)cc1)(Oc1ccccc1)N(CCCl)CCCl (configuration not stated)	inactive
Cc1cnc2c(c1)C(=O)C1=C(C2=O)C2OC(=O)CC2OC1(C)C (configuration not stated)	active
Cc1cc(O)c2c(c1)C(C1c3cccc(O)c3C(=O)c3c(O)cc(C)cc31)c1cccc(O)c1C2=O (configuration not stated)	active
Nc1ccc(C(=O)O)cc1	inactive
Cc1nc2c(ccc3ncccc32)[nH]1	inactive
